Catalogue of abundance fitness values
B1: Transcription elongation factor A N-terminal and central domain-containing protein, residues 30 to 77; numbered along this chain, Q8N8B7 (parent)
chain: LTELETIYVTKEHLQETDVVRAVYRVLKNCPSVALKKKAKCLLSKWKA

Variants of: B1
Experiment: abundance fitness (aPCA) (normalised: wild type 0, dead -1); higher = more abundant; growth selection in yeast, the domain comes from the species named
Conditions: Homo sapiens
measured-quantity: abundance fitness

{"columns": ["variant-spec", "result"],
 "data": [
  ["L14Q", 0.247],
  ["S32D", -0.389],
  ["K36M", 0.085],
  ["C30V", 0.062],
  ["L1F", -0.001],
  ["W46N", -0.823],
  ["I7L", -0.07],
  ["R25L", -0.71],
  ["S44W", -0.237],
  ["L43S", -1.04],
  ["T2M", -0.461],
  ["H13T", 0],
  ["V20S", -0.594],
  ["K38G", -0.209],
  ["A48W", -0.469],
  ["A22M", -0.053],
  ["Y24P", -0.72],
  ["T17M", 0.192],
  ["T17W", -0.142],
  ["K47M", -0.252],
  ["E16W", -0.414],
  ["L14N", 0.235]
]}
